We begin with a simple list: items and their reported log10 viscosity.
Conditions: 308.15 K; 100 kPa
Transform log10 | Measure viscosity | Unit mPa·s

Solved cases (3 shown):
1. CCc1ccccc1 : -0.25
2. CCCCn1cc[n+](C)c1.F[P-](F)(F)(F)(F)F : 2.17
3. CCO : -0.03

In: Could you please provide reported log10 viscosity for `C=CC(=O)OCC` ? Thanks!
Out: -0.33

In: Specify measured log10 viscosity for `COC(C)(C)C` .
Out: -0.56

---

Conditions: 303.15 K; 101.33 kPa
Below: a set of entries, each annotated with reported viscosity.
The reply should be a number in mPa·s, with the unit left off.

1. CCc1ccccc1 : 0.584
2. COC(C)(C)C : 0.3163

In: For the molecule `N#CCCCCC#N` , give its measured viscosity value.
Out: 4.905

In: Give a short answer stating reported viscosity for `CCO` .
Out: 0.988

---

Some compounds, each annotated with its measured viscosity.
Details: 303.15 K; 101 kPa
± gives the uncertainty stated by the source.

1) CC1=CCC(=C(C)C)CC1 : 1.007 ± 0.055 mPa·s

In: For the compound `COCCOCCOCCOCCOC` , give its reported viscosity.
Out: 2.955 ± 0.083 mPa·s

In: Return viscosity (reported value) for this compound: `CCCCCC(=O)O.CCCCCC(=O)[O-].CC[NH+](CC)CCO`
Out: 47.52 ± 1 mPa·s

In: Supply recorded viscosity for `CCc1ccccc1` here.
Out: 0.5916 ± 0.0053 mPa·s

---

Conditions: 318.15 K; 100 kPa
± gives the uncertainty stated by the source.
Here, each record is paired with measured viscosity data.
Kindly write the number and append the unit.

In: Specify viscosity for `C=CC(=O)OCC` and stop.
Out: 0.3813 ± 0.01 mPa·s

In: Quickly give me recorded viscosity for `CCO`
Out: 0.75 ± 0.05 mPa·s

In: Report measured viscosity; entry is `CCc1ccccc1`
Out: 0.503 ± 0.008 mPa·s

In: Tell me viscosity reported for `COC(C)(C)C`
Out: 0.231 ± 0.02 mPa·s

In: Name the recorded viscosity of the compound listed here: `OC1CCCC1`
Out: 4.742 mPa·s

In: Give viscosity for the following compound: `CCCCn1cc[n+](C)c1.F[P-](F)(F)(F)(F)F`
Out: 87.66 ± 2.4 mPa·s

---

Conditions: 298.15 K; 100 kPa
The reader will find reported viscosity values listed item by item below.
Form entry: value (mPa·s) — number only.

The cases that follow already have their viscosity on record.
1) OC1CCCC1 : 10.41
2) C=CC(=O)OCC : 0.533
3) CCCCn1cc[n+](C)c1.F[P-](F)(F)(F)(F)F : 256.7

In: Supply viscosity value. Item: `COC(C)(C)C`
Out: 0.32

---

Listed molecules paired with reported viscosity
Conditions: 313.15 K; 100 kPa
Report the value in mPa·s with no unit label.

Here are 3 molecules together with their reported answers.
1) CCCCn1cc[n+](C)c1.F[P-](F)(F)(F)(F)F : 112
2) COC(C)(C)C : 0.252
3) C=CC(=O)OCC : 0.423

In: For `CCc1ccccc1` , write its viscosity.
Out: 0.53

---

Settings: 323.15 K; 101 kPa
Readout Name: viscosity (mPa·s)
Write it as a number; the unit mPa·s goes unstated.

In: Annotate the compound `CCCCCC(=O)O.CCCCCC(=O)[O-].CC[NH+](CC)CCO` with its measured viscosity.
Out: 21.16

In: Fill in reported viscosity for this entry: `OCCCCCO`
Out: 29.8

In: Assign viscosity to the following record: `COCCOCCOCCOCCOC`
Out: 1.975

In: Write down viscosity measured for item `COC(C)(C)C`
Out: 0.276

---

Conditions: 293.15 K; 100 kPa
Item-by-item account of viscosity
Numbers only here, please. The scale is mPa·s.

1. C=CC(=O)OCC : 0.5685

In: Quick one: give measured viscosity for `CCCCn1cc[n+](C)c1.F[P-](F)(F)(F)(F)F`
Out: 336.9

In: Determine its reported viscosity: `OC1CCCC1`
Out: 12.9

In: Retrieve viscosity measured for `COC(C)(C)C` and print it.
Out: 0.345
